Reference for the values: patent US5296494A

biological target: guinea pig trachea (Cavia porcellus); construct: the trachea is rapidly removed and then cut into two-cartilage rings; from tissue; host or cells: guinea pig trachea, two-cartilage rings (isolated organ); test: Determination of the pA2 values on guinea pig trachea (U46619-induced contraction); format: cell-based; settings: isolated guinea pig trachea rings, 37° C., agonist U46619, antagonist contact 20 minutes
Sequence (A0A286Y4I8 1-347): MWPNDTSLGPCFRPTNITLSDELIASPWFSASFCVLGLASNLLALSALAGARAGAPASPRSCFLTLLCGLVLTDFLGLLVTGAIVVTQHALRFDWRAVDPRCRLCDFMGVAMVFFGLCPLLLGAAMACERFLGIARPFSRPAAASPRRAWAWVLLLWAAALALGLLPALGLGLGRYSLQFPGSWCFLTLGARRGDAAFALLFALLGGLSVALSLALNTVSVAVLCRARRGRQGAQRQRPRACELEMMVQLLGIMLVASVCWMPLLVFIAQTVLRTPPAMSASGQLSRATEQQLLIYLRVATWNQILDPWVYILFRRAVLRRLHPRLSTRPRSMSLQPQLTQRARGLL
Where a name gives a salt, the structure may show the parent alone.
REPORTED ENDPOINT: log10(Kb) (log10 of the value in nM)

COMPOUND | REPORTED ENDPOINT | ASSAY RESULT
O=C(O)CCCCC[C@@H]1CCN(Cc2cccnc2)[C@@H]1c1ccccc1 (relative stereo) [Example 22, sodium salt] | log10(Kb) | 3.85
O=C(O)CCC/C=C\C[C@@H]1CCN(S(=O)(=O)c2ccc(F)cc2)[C@@H]1c1cccc(O)c1 (relative stereo) [Example 15, sodium salt] | log10(Kb) | 1.60
COc1cccc([C@@H]2[C@H](C/C=C\CCC(=O)O)CCN2S(=O)(=O)c2ccc(F)cc2)c1 (relative stereo) [Example 1, sodium salt] | log10(Kb) | 1.80
O=C(O)CC/C=C\C[C@@H]1CCN(Cc2cccnc2)[C@@H]1c1cccc(O)c1 (relative stereo) [Example 26, sodium salt] | log10(Kb) | 1.49
O=C(O)CC/C=C\C[C@@H]1CCN(Cc2cccnc2)[C@@H]1c1ccccc1 (relative stereo) [Example 21, sodium salt] | log10(Kb) | 0.26
O=C(O)CC/C=C\C[C@@H]1CCN(S(=O)(=O)c2ccc(F)cc2)[C@@H]1c1cccc(O)c1 (relative stereo) [Example 14, sodium salt] | log10(Kb) | 1.00

###

// reported pIC50 per item
molecular target: thromboxane synthase (Oryctolagus cuniculus, UniProt G1TAZ9); construct: from tissue; host or cells: rabbit whole blood (clotting; by own knowledge the enzyme is chiefly that of platelets); assay: Anti-thromboxane synthase activity (TXB2 levels in serum of rabbit blood, radio immunoassay); assay type: cell-based; details: 37° C., one hour, serum TXB2 by radio immunoassay, read-out: IC50, inhibition of TXB2 level
Sequence (G1TAZ9 1-530): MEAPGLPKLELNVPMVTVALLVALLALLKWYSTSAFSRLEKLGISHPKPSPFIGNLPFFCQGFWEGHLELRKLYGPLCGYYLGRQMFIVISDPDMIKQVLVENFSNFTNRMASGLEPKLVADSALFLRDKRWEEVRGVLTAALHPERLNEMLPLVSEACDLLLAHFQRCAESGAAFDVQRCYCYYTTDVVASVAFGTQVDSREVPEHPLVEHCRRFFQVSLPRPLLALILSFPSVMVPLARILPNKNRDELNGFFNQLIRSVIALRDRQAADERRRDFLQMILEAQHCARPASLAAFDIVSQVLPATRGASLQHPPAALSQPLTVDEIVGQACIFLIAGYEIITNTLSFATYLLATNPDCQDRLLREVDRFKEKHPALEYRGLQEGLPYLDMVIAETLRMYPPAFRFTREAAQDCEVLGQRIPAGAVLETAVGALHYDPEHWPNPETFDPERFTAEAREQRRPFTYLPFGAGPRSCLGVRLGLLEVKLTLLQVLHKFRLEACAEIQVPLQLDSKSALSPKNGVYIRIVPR
pIC50: −log10 of the molar value. Structures can show the parent of a compound that is named as a salt.

MOLECULE | pIC50
O=C(O)CC/C=C\C[C@@H]1CCN(Cc2cccnc2)[C@@H]1c1ccccc1 (relative stereo) [Example 21, sodium salt] | 5.07
O=C(O)CCCCC[C@@H]1CCN(S(=O)(=O)c2ccc(F)cc2)[C@@H]1c1cccnc1 (relative stereo) [Example 20, sodium salt] | 4.22
O=C(O)CC/C=C\C[C@@H]1CCN(S(=O)(=O)c2ccc(F)cc2)[C@@H]1c1cccnc1 (relative stereo) [Example 2, sodium salt] | 3.70

###

system: platelet aggregation response induced by U46619 (TXA2 receptor agonist); experiment: Platelet aggregation: inhibition of U46619-induced aggregation of rabbit platelet-rich plasma; type: cell-based; conditions: Oryctolagus cuniculus, rabbit PRP, 37° C., antagonist 3 min before U46619 (1.2 μM), read-out: IC50, concentration inducing 50% inhibition of the aggregation response induced by U46619
Counter-ions that a name gives are not always drawn.
REPORTED ENDPOINT: IC50 (µM)

COMPOUND | RESULT UNITS | ASSAY RESULT
O=C(O)CCC/C=C\C[C@@H]1CCN(S(=O)(=O)c2ccc(F)cc2)[C@@H]1c1cccc(O)c1 (relative stereo) [Example 15, sodium salt] | µM | 20
O=C(O)CC/C=C\C[C@@H]1CCN(S(=O)(=O)c2ccc(F)cc2)[C@@H]1c1cccc(O)c1 (relative stereo) [Example 14, sodium salt] | µM | 20
